Test: Clearance in cynomolgus monkey at 0.2 mg/kg, iv
Assay type: ADME, organism-based, Macaca fascicularis
Conditions: in vivo
measure name: clearance (L/h/kg)
// note: answer is a bare numeric in L/h/kg

Returns the measured clearance for the input compound. Input: COC[C@](CO)(OC[C@H]1O[C@@H](n2ncc3c(NC4CCCC4)nc(Cl)nc32)[C@H](O)[C@@H]1O)P(=O)(O)O 0.05

* * *

Assay: Terminal half life in rat at 0.2 mg/kg, iv
Assay type: ADME, organism-based
Details: in vivo, read-out: beta t1/2 (converted)
measure name: half-life (h)
Reply numerically in h, unit not repeated.

What value of half-life has been recorded for this entry: COC[C@](CO)(OC[C@H]1O[C@@H](n2ncc3c(NC4CCCC4)nc(Cl)nc32)[C@H](O)[C@@H]1O)P(=O)(O)O 8.5

* * *

Biological target: 5'-nucleotidase (Homo sapiens)
Sequence (P21589 whole entry): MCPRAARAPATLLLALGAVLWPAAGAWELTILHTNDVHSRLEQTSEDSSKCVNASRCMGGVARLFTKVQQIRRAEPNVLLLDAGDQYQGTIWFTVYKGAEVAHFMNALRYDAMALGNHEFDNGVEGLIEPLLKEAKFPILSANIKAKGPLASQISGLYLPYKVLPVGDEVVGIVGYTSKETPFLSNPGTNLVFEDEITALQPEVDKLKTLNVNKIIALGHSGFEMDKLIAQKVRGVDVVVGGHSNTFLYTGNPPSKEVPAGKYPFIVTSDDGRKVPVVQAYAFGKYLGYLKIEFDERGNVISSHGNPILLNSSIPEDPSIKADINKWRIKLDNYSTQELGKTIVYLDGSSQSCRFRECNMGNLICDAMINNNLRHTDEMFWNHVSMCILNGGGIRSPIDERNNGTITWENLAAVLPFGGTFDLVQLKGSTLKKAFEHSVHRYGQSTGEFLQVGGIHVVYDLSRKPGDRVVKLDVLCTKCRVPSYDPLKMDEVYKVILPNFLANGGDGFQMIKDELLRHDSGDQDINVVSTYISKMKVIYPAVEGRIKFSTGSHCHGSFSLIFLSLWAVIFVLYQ
Assay: Inhibition of human C-terminal His6-tagged CD73 expressed in CHO cells preincubated for 15 mins followed by AMP addition and measured after 10 mins by malachite green reagent based assay
Exercise: state measured IC50 for each of the compounds provided.
The reply should be a number in µM, with the unit left off.

Lookup: IC50 / 5'-nucleotidase (Homo sapiens) / CN(c1nc(Cl)nc2c1cnn2[C@@H]1O[C@H](COP(=O)(O)CP(=O)(O)O)[C@@H](O)[C@H]1O)[C@H]1CCc2ccccc21 0.00052

Return IC50 measured with 5'-nucleotidase (Homo sapiens) given this compound: O=P(O)(O)C(CO)OC[C@H]1O[C@@H](n2ncc3c(NC4CCCC4)nc(Cl)nc32)[C@H](O)[C@@H]1O (mixture of isomers) 0.0024

Hello, I am looking for reported IC50 with 5'-nucleotidase (Homo sapiens) for O=P(O)(O)COC[C@H]1O[C@@H](n2ncc3c(NC4CCCC4)nc(Cl)nc32)[C@H](O)[C@@H]1O . Could you help? 0.011

Hello, I am looking for reported IC50 with 5'-nucleotidase (Homo sapiens) for CSCC(C)(OC[C@H]1O[C@@H](n2ncc3c(NC4CCCC4)nc(Cl)nc32)[C@H](O)[C@@H]1O)P(=O)(O)O (mixture of isomers) . Could you help? 0.01

Recorded IC50 for N#CC(OC[C@H]1O[C@@H](n2ncc3c(NC4CCCC4)nc(Cl)nc32)[C@H](O)[C@@H]1O)P(=O)(O)O (mixture of isomers) with 5'-nucleotidase (Homo sapiens), please? 0.559

Under 5'-nucleotidase (Homo sapiens): IC50 value of CS(=O)(=O)C(OC[C@H]1O[C@@H](n2ncc3c(NC4CCCC4)nc(Cl)nc32)[C@H](O)[C@@H]1O)P(=O)(O)O (mixture of isomers) ? 0.193

Entry CC(CS(C)(=O)=O)(OC[C@H]1O[C@@H](n2ncc3c(NC4CCCC4)nc(Cl)nc32)[C@H](O)[C@@H]1O)P(=O)(O)O (mixture of isomers) , system 5'-nucleotidase (Homo sapiens): what IC50 was measured? 0.023

Hello, I am looking for reported IC50 with 5'-nucleotidase (Homo sapiens) for O=P(O)(O)CP(=O)(O)OC[C@H]1O[C@@H](n2nnc3c(NCc4ccccc4Cl)nc(Cl)nc32)[C@H](O)[C@@H]1O . Could you help? 0.0039

// fetch 5'-nucleotidase (Homo sapiens) IC50 for CC(OC[C@H]1O[C@@H](n2ncc3c(NC4CCCC4)nc(Cl)nc32)[C@H](O)[C@@H]1O)P(=O)(O)O (mixture of isomers) 0.018

Missing value: IC50, 5'-nucleotidase (Homo sapiens), entry O=C(O)C(OC[C@H]1O[C@@H](n2ncc3c(NC4CCCC4)nc(Cl)nc32)[C@H](O)[C@@H]1O)P(=O)(O)O (mixture of isomers) . Fill in? 0.108

Which measured IC50 belongs to COP(=O)(CP(=O)(O)O)OC[C@H]1O[C@@H](n2ncc3c(NCc4ccccc4Cl)nc(Cl)nc32)[C@H](O)[C@@H]1O (some centres not stated) , tested on 5'-nucleotidase (Homo sapiens)? 0.0247

Please tell me: IC50 of O=P(O)(O)COCC[C@H]1O[C@@H](n2ncc3c(NCc4ccccc4Cl)nc(Cl)nc32)[C@H](O)[C@@H]1O , system 5'-nucleotidase (Homo sapiens)? 1.2

* * *

measure name: IC50

Provide the documented IC50 with Cytochrome P450 2C9 (Homo sapiens) as the system for COC[C@](CO)(OC[C@H]1O[C@@H](n2ncc3c(NC4CCCC4)nc(Cl)nc32)[C@H](O)[C@@H]1O)P(=O)(O)O > 20 µM

* * *

Assay: AUC infinity in rat at 50 mg/kg, po
Type: ADME, organism-based
Set-up: time infinity, route oral, dose 50 mg/kg
Conditions: in vivo
measure name: AUC(0-inf) (µM·h)
Only the number, expressed in µM·h, is required.

Request the reported AUC(0-inf) associated with O=P(O)(O)COC[C@H]1O[C@@H](n2ncc3c(NCc4ccccc4Cl)nc(Cl)nc32)[C@H](O)[C@@H]1O 0.66

Field request: AUC(0-inf) | item: O=P(O)(O)CS(=O)(=O)C[C@H]1O[C@@H](n2ncc3c(NCc4ccccc4Cl)nc(Cl)nc32)[C@H](O)[C@@H]1O 0.54

* * *

Answer each item with its documented EC50.
Target: 5'-nucleotidase (Homo sapiens)
Assay: Inhibition of CD73 in human NCI-H1568 cells assessed as reduction in AMP-induced ADO expression preincubated for 15 mins followed by AMP addition and measured after 1 hr by LC-MS/MS analysis
Type: cell-based
The response must be a number in nM with no trailing unit.

I have this molecule here, C[C@@](CO)(OC[C@H]1O[C@@H](n2ncc3c(NC4CCCC4)nc(Cl)nc32)[C@H](O)[C@@H]1O)P(=O)(O)O , and I need its recorded EC50. 6.9

// lookup EC50 for O=P(O)(O)C(CO)(CO)OC[C@H]1O[C@@H](n2ncc3c(NC4CCCC4)nc(Cl)nc32)[C@H](O)[C@@H]1O 3.7

Requested field: EC50. Item: Nc1ncnc2c1ncn2[C@@H]1O[C@H](COP(=O)(O)CP(=O)(O)O)[C@@H](O)[C@H]1O 16300

Quick one: EC50 for COC[C@](CO)(OC[C@H]1O[C@@H](n2ncc3c(NC4CCCC4)nc(Cl)nc32)[C@H](O)[C@@H]1O)P(=O)(O)O ? 0.79

* * *

Assay: Clearance in rat at 0.2 mg/kg, iv
Type: ADME, organism-based
Details: in vivo
measure name: clearance (mL/min/kg)
Dear colleague, please return just the value in mL/min/kg, with no unit written.

Which clearance is reported for this compound? COC[C@](CO)(OC[C@H]1O[C@@H](n2ncc3c(NC4CCCC4)nc(Cl)nc32)[C@H](O)[C@@H]1O)P(=O)(O)O 3

* * *

Assay: Cmax in cynomolgus monkey at 10 mg/kg, po
Type: ADME, organism-based, Macaca fascicularis
Set-up: route oral, dose 10 mg/kg
Conditions: in vivo
measure name: Cmax
State the value with its unit after it.

Can you look up the measured Cmax of COC[C@](CO)(OC[C@H]1O[C@@H](n2ncc3c(NC4CCCC4)nc(Cl)nc32)[C@H](O)[C@@H]1O)P(=O)(O)O for me? 1720 nM

* * *

measure name: IC50

Hello, I am looking for reported IC50 with Cytochrome P450 2C8 (Homo sapiens) for COC[C@](CO)(OC[C@H]1O[C@@H](n2ncc3c(NC4CCCC4)nc(Cl)nc32)[C@H](O)[C@@H]1O)P(=O)(O)O . Could you help? > 20 µM

* * *

Test: AUC in dog at 10 mg/kg, po
Type: ADME, organism-based, Canis lupus familiaris
Set-up: dose 10 mg/kg
Details: in vivo
measure name: AUC (µM·h)
Field format: number, assumed µM·h, no unit text.

State the recorded AUC for this entry: COC[C@](CO)(OC[C@H]1O[C@@H](n2ncc3c(NC4CCCC4)nc(Cl)nc32)[C@H](O)[C@@H]1O)P(=O)(O)O 1.75

* * *

Assay: AUC in rat at 10 mg/kg, po
Format: ADME, organism-based
Parameters: dose 10 mg/kg
Conditions: in vivo
measure name: AUC (µM·h)
Quick reminder: number only, in µM·h, skip the unit.

Suppose we examine the compound COC[C@](CO)(OC[C@H]1O[C@@H](n2ncc3c(NC4CCCC4)nc(Cl)nc32)[C@H](O)[C@@H]1O)P(=O)(O)O ; what AUC value has been reported? 1.96

* * *

Experiment: Cmax in dog at 10 mg/kg, po
Type: ADME, organism-based, Canis lupus familiaris
Design: route oral, dose 10 mg/kg
Conditions: in vivo
measure name: Cmax (nM)
Respond numerically; units are nM and should not be typed.

For the molecule shown here, COC[C@](CO)(OC[C@H]1O[C@@H](n2ncc3c(NC4CCCC4)nc(Cl)nc32)[C@H](O)[C@@H]1O)P(=O)(O)O , give the reported Cmax. 1250

* * *

Assay: AUC in rat at 0.2 mg/kg, iv
Type: ADME, organism-based
Set-up: dose 0.2 mg/kg
Conditions: in vivo
measure name: AUC (µM·h)
Only the number, expressed in µM·h, is required.

Which AUC value belongs to COC[C@](CO)(OC[C@H]1O[C@@H](n2ncc3c(NC4CCCC4)nc(Cl)nc32)[C@H](O)[C@@H]1O)P(=O)(O)O ? 2.11
